Attribution: patent US20210024507A1

Test system: human CTPS1
ASSAY_PROTOCOL: RapidFire/MS-based enzyme selectivity assay, human CTPS1
Format: biochemical
RUN_CONDITIONS: calculated from the CTPS1 and CTPS2 IC50 values
RECORDED_METRIC: Selectivity (fold selectivity between CTPS1 and CTPS2)

Please review the entries below; each comes with its answer.
CCOc1cncc(-c2ccc(NC(=O)C3(c4ccnc(NS(=O)(=O)C5CC5)n4)CCOCC3)c(F)c2)n1	+++ (>60 fold (+++))
CCOc1cncc(-c2ccc(C(=O)NCc3ccnc(NS(=O)(=O)C4CC4)n3)cc2)n1	+++ (>60 fold (+++))
CCC(C(=O)Nc1ccc(-c2cncc(OCC(F)(F)F)n2)cc1F)c1ccnc(NS(=O)(=O)C2CC2)n1 (stereo not shown)	+++ (>60 fold (+++))
CCOc1cncc(-c2ccc(NC(=O)C(F)(CC)c3cncc(NS(=O)(=O)C4CC4)n3)nc2)n1 (single isomer, unassigned) [P207]	+ (2-30 fold (+))
CCOc1cncc(-c2ccc(NC(=O)C(CC)c3ccnc(NS(=O)(=O)C4CC4)n3)cc2)n1 (stereo not shown)	++ (>30-60 fold (++))
CCC(C(=O)Nc1ccc(-c2cncc(OCC(F)(F)F)n2)cc1)c1ccnc(NS(=O)(=O)C2CC2)n1 (stereo not shown)	+++ (>60 fold (+++))

Input line: I would be grateful if you could share the reported Selectivity (fold selectivity between CTPS1 and CTPS2) for CCOc1cncc(-c2ccc(C(=O)NC(CC)c3ccnc(NS(=O)(=O)C4CC4)n3)c(F)c2)n1 (stereo not shown) .
Output line: +++ (>60 fold (+++))

Input line: Can you check CCOc1cncc(-c2ccc(NC(=O)C(C)(CCOC)c3cncc(NS(=O)(=O)C4CC4)n3)nc2)n1 (stereo not shown) next?
Output line: +++ (>60 fold (+++))

Input line: Can you check CCOc1cncc(-c2ccc(NC(=O)C(OC)c3ccnc(NS(=O)(=O)C4CC4)n3)cc2)n1 (stereo not shown) next?
Output line: + (2-30 fold (+))

Input line: Can you check "CCOc1cncc(-c2ccc(NC(=O)C(C)(C)c3ccnc(NS(=O)(=O)C4CC4)n3)c(F)c2)n1" next?
Output line: + (2-30 fold (+))

Input line: Can you check "CC(C)Oc1cncc(-c2ccc(NC(=O)Cc3ccnc(NS(=O)(=O)C4CC4)n3)cc2)n1" next?
Output line: ++ (>30-60 fold (++))

Input line: Can you check CCOc1cncc(-c2ccc(NC(=O)C(CCOC)c3ccnc(NS(=O)(=O)C4CC4)n3)c(F)c2)n1 (stereo not shown) next?
Output line: +++ (>60 fold (+++))

Input line: Can you check CCOc1cncc(-c2ccc(NC(=O)C(CCOC)c3ccnc(NS(=O)(=O)C4CC4)n3)cc2)n1 (stereo not shown) next?
Output line: ++ (>30-60 fold (++))
